target: c-Myc/Max (Homo sapiens, UniProt P01106+P61244); test: Inhibition of Myc-Max (unknown origin) expressed in human LNCAP cells assessed as reduction in transcriptional activity at 25 uM after 1 day by luciferase reporter gene assay relative to control; format: cell-based
Sequence (P01106 whole entry): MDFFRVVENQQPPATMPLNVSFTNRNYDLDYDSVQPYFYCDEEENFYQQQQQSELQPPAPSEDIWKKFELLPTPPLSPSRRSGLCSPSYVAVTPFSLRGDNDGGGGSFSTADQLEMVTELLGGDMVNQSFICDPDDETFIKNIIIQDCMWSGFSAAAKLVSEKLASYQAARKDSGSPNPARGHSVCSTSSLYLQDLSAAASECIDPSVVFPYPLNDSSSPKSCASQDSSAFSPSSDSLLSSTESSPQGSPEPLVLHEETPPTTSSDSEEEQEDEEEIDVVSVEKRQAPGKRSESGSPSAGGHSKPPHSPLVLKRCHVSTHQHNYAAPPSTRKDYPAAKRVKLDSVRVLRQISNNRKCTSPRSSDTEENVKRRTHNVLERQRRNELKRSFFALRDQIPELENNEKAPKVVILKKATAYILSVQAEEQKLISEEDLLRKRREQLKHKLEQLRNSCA
Sequence (P61244 whole entry): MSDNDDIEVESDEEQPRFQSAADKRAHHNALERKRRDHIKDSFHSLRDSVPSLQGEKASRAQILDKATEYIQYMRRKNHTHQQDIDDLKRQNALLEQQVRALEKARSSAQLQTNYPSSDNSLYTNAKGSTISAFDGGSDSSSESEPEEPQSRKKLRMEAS
QUANTITY NAME: inhibition (%)

# example entries with known answers
{"MOLECULE": "O=C1NC(=S)S/C1=C\\c1ccccc1C(F)(F)F", "UNITS OF MEASURE": "%", "OBSERVED": 98}
{"MOLECULE": "CN1C(=O)/C(=C\\C=C\\c2ccco2)SC1=S", "UNITS OF MEASURE": "%", "OBSERVED": 78}
{"MOLECULE": "CCc1ccc(/C=C2\\SC(=S)NC2=O)cc1", "UNITS OF MEASURE": "%", "OBSERVED": 91}
{"MOLECULE": "CS(=O)(=O)Nc1ccccc1C(=O)OCc1cc(=O)oc2cc(O)ccc12", "UNITS OF MEASURE": "%", "OBSERVED": 53}

a. CC(C)(C)[C@H]1CCc2sc(C(=O)N3CCC(C(N)=O)CC3)cc2C1
b. FC(F)(F)c1cc(NC(=S)NCc2ccccc2)cc(C(F)(F)F)c1
Decide: a or b , by lowest recorded inhibition. Indicate which entry you chose by stating its label.
a
(a: 73%, b: 106%)

====

test: Cytotoxicity against rat HO15.19 cells assessed as reduction in cell viability at 25 uM after 96 hrs by prestoblue assay relative to control; format: cell-based; conditions: read-out: INH
QUANTITY NAME: cytotoxicity at 96 h, 25 µM

Form field: reported cytotoxicity at 96 h, 25 µM of FC(F)(F)c1cc(NC(=S)NCc2ccccc2)cc(C(F)(F)F)c1
≤ 40%

====

biological target: c-Myc/Max (Homo sapiens, UniProt P01106+P61244); assay: Inhibition of Myc-Max (unknown origin) expressed in human 22rv1 cells harboring UBE2C promoter assessed as reduction in ARV7 level at 25 uM after 1 day by luciferase reporter gene assay relative to control; format: cell-based
QUANTITY NAME: inhibition (%)

# example entries with known answers
{"MOLECULE": "NC(=O)c1ccsc1NC(=O)Nc1cccc(C(F)(F)F)c1", "inhibition [%]": 73}
{"MOLECULE": "O=C1NC(=S)S/C1=C\\c1ccccc1C(F)(F)F", "inhibition [%]": 71}
{"MOLECULE": "CCc1ccc(/C=C2\\SC(=S)NC2=O)cc1", "inhibition [%]": 70}
{"MOLECULE": "CC(C)(C)[C@H]1CCc2sc(C(=O)N3CCC(C(N)=O)CC3)cc2C1", "inhibition [%]": 58}
{"MOLECULE": "CC(=O)Nc1ccc(Nc2cc(Cl)c(C(F)(F)F)cc2[N+](=O)[O-])cc1", "inhibition [%]": 51}
{"MOLECULE": "S=C(NCc1ccc(Cl)c(Cl)c1)Nc1cccnc1", "inhibition [%]": 50}

a. CN1C(=O)/C(=C\C=C\c2ccco2)SC1=S
b. FC(F)(F)c1cc(NC(=S)NCc2ccccc2)cc(C(F)(F)F)c1
Decide: a or b , by lowest recorded inhibition. Indicate which entry you chose by stating its label.
a
(a: 64%, b: 94%)

====

biological target: c-Myc/Max (Homo sapiens, UniProt P01106+P61244); assay: Inhibition of Myc-Max (unknown origin) expressed in human LNCAP cells assessed as reduction in transcriptional activity after 1 day by luciferase reporter gene assay
QUANTITY NAME: IC50 (µM)

P. FC(F)(F)c1cc(NC(=S)NCc2ccccc2)cc(C(F)(F)F)c1
Q. O=C1NC(=S)S/C1=C\c1ccccc1C(F)(F)F
Please tell me which of the two, P or Q , has the higher reported IC50 value. Indicate which entry you chose by stating its label.
Q
